- Assay System: human cannabinoid CB2 receptor (Homo sapiens, UniProt P34972)
- Sequence (P34972 whole entry): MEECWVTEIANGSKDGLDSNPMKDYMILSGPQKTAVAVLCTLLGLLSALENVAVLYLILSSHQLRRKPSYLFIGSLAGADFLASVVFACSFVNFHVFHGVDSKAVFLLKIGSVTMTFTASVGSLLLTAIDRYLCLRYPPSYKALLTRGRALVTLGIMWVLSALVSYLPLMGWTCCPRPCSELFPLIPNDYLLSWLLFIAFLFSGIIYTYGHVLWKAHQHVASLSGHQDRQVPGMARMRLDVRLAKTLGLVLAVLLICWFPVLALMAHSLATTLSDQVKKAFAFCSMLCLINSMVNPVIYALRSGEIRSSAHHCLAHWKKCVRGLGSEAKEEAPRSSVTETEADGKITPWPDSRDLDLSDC
- Protocol Summary: Competitive radioligand binding, displacement of [3H]-CP55,940 from hCB2
- Test Settings: read-out: hCB2 Ki; [3H]-CP55940 radioligand, membranes of transfected HEK293 EBNA cells, mean ± SEM of at least three experiments
Value Type: Ki (nM)
# output: bare number, implied unit nM

-- ask Need Ki, item `CCCCCc1cc(O)c2c(c1)OC(C)(C)c1cn[nH]c1-2`
-- reply 2010

====

- Assay System: human cannabinoid CB1 receptor (Homo sapiens)
- Sequence (P21554 whole entry): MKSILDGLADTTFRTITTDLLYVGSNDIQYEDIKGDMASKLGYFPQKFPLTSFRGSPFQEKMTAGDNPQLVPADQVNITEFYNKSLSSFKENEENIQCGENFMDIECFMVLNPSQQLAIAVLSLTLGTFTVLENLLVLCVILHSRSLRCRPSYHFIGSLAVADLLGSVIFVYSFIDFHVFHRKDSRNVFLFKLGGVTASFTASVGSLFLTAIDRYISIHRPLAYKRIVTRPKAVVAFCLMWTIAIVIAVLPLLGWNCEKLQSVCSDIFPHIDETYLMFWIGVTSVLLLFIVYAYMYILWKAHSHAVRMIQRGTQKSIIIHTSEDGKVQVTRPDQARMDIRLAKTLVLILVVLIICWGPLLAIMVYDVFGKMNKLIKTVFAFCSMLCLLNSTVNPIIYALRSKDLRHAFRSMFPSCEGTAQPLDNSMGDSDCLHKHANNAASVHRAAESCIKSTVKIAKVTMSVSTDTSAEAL
- Protocol Summary: biochemical
- Type: binding
- Test Settings: from Ki values at hCB1 and hCB2
Value Type: CB1/CB2 selectivity ratio CB1 versus CB2

Compound	Value Observed
CCCCCCC(C)(C)c1cc(O)c2c(c1)OC(C)(C)c1cnn(CC)c1-2 [Compound 13a]	>1000
CCCCCCC(C)(C)c1cc(O)c2c(c1)OC(C)(C)c1cn(CC)nc1-2 [Compound 13b]	>1000
CCCCCCC(C)(C)c1cc(O)c2c(c1)OC(C)(C)c1cn[nH]c1-2 [Compound 11]	>1000

Now consider a different compound.
-- ask Request body: readout CB1/CB2 selectivity ratio CB1 versus CB2, system human cannabinoid CB1 receptor (Homo sapiens), query CCCCCc1cc(O)c2c(c1)OC(C)(C)c1cnn(C)c1-2 [Compound 8a] . Return the value.
-- reply 0.7

Origin of measurements: paper PMC4049093
